Biological target: T1, FLAG-tagged human IL-11 expressed at the surface of transiently transfected cells (human, UniProt P20809 22-199)
T1 construct: also called IL-11 expressing HEK cells; target cells expressing human IL-11 at their surface; not shown: FLAG tag added to the N-terminus
T1 sequence: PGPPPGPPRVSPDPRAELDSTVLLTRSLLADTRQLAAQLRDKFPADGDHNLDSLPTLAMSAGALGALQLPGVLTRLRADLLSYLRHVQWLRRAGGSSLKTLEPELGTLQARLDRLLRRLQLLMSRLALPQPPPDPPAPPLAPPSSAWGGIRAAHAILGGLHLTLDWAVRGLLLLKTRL
Test: flow cytometry, hybridoma supernatant on cells transfected with pB1-IL11-hum.FL; relative to the anti-FLAG positive control (100%)
Quick reference for binding relative to anti-FLAG positive control among some binders
Please state the figure in %; there is no need to write the unit.

Sample answers from the record:
- binder: "BSN-2G6 (antibody, V domains shown) VH: QVQLQESGPELVKPGASVKIPCKASGYTFTDYNMDWVKQSHGKSLEWIGNINPDNGGTIYNQKFKGKATLTVDKSSSTAYMELRSLTSEDTAVYFCAREGPYGYTWFAYWGQGTLDTVSA VL: DILLTQSPAILSVSPGERVSFSCRASQSIGTSIHWYQQRTNGSPRLLIKYASESISGIPSRFSGSGSGTDFTLSINSVESEDIADYYCQQSNSWPLTFGAGTKLELK"
  observed result: 23
- binder: "BSN-8H11 (antibody, IgG2b, V domains shown, also called A16) VH: EVQLQQSGPELVKPGASVKIPCKASGYTFTDYNIDWVKQSHGKSLEWIGDINPNYGGTLYNQKFKGKATLTVDKSSSTAYMELRSLTSEDTAVYYCARGELGHWYFDVWGTGTTVTVSS VL: DIVLTQSPASLAVSLGQRATISCRASKSVSTSDYSYMHWYQQKPGHPPKLLIYLASNLESGVPARFSGSGSGTDFTLNIHPVEEEDAATYFCQHSRDLPPTFGGGTKLEIK"
  observed result: 190
- binder: "BSN-7D4 (antibody, V domains shown, Mouse monoclonal antibody from a hybridoma; also called A12) VH: EVQLQQSGPELVKPGASVKISCKASGYTFTDYNMDWVKQSQGKRLEWIGDINPNYGGTIYNQKFKGKATLTVDKSSSTAYMELRSLTSEDTTVYYCTRGELGHWYFDVWGTGTTVTVSS VL: DIVLTQSPPSLTVSLGQRATISCRASKSVSASGYSYMHWYQQKPGQPPKLLIYLTSNLESGVPARFSGSGSGTDFTLNIHPVEEEDAATYYCQHSWDLPPTFGGGTKLEIK"
  observed result: 176
- binder: "BSN-1H2 (antibody, IgG1, V domains shown, also called A1) VH: QAQLQQSGAELARPGASVKLSCKASGYTFTSYGITWVKQRTGQGLEWIGDIYPRSGNIYYNENFKGEATLTADKSSSTAYMQLSRLTSEDSAVYFCARSGWEGWFAYWGQGTLVTVSV VL: DIVMTQSHKFMSTSVGDRVNITCKASQDVGSAVVWYQQKPGQSPKVLIYWASTRHTGVPDRFTGSGSGTDFTLTISNVQSEDLADYFCQQYSSYRTFGGGTKLEIK"
  observed result: 157
- binder: "BSN-5B8 (antibody, V domains shown) VH: QVQLQQSGAELARPGTSVKLSCKASGYTFTSYGISWVKQRTGQGLEWIGEIYPRSSNTYYNEKFKGKATLTADKSSSTAYMELRSLTSEDSADYFCARANWVGYFDVWGTGTTVTVSS VL: DIVMTQSHKFMSTSVGDRVTITCKASQDVGTAVAWYQQKPGQSPKLLIYWASTRLTGVPDRFTGSGSGTYFTLTINNVQSEDLADYFCQQYSSYRTFGGGTKLEIK"
  observed result: 188

What does the data say about its binding relative to anti-FLAG positive control? Entry: BSN-2E1 (antibody, V domains shown) VH: QVQLQESGPELVKPGASVKIPCKASGYTFTDYNMDWVKQSHGKSLEWIGDINPHNGGPIYNQKFTGKATLTVDKSSSTAYMELRSLTSEDTAVYYCARGELGHWYFDVWGTGTTVTVSS VL: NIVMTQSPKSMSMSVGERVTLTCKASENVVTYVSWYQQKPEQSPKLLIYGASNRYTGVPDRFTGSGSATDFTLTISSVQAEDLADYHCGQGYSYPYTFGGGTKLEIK
164

What does the data say about its binding relative to anti-FLAG positive control? Entry: BSN-3C6 (antibody, V domains shown, Mouse monoclonal antibody from a hybridoma; also called A6; anti-IL-11 antibody clone BSN-3C6) VH: EVQLQQSGPELVKPGASVKIPCKASGYTFTDYNMDWVKQSHGKSLEWIGDINPHNGGPIYNQKFTGKATLTVDKSSSTAYMELRSLTSEDTAVYYCARGELGHWYFDVWGTGTTVTVSS VL: DIVLTQSPASLAVSLGQRATISCRASKSVSTSGYSYIHWYQQKPGQPPKLLIYLASNLDSGVPARFSGSGSGTDFTLNIHPVEEEDAATYYCQHSRDLPPTFGGGTKLEIK
176
